Target: Prostaglandin D2 receptor 2 (Homo sapiens, UniProt Q9Y5Y4)
Sequence (Q9Y5Y4 whole entry): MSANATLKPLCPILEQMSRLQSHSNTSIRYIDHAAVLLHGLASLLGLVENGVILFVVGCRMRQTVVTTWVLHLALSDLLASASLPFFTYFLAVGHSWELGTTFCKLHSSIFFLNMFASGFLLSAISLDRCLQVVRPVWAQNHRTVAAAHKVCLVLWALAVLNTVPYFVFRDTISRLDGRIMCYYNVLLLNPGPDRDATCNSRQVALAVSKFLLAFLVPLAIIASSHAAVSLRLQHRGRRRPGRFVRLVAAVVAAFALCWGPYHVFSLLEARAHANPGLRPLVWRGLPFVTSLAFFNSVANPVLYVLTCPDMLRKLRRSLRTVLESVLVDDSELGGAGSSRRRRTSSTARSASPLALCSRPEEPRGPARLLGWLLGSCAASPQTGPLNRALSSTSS
Test: Displacement of [3H]PGD2 from human CRTH2 receptor expressed in 293 cells by scintillation counting in presence of 0.5% BSA
Type: cell-based, HEK293
VALUE KIND: log10 of IC50 (log10 of the value in µM)
# log10 transformed; quantity=IC50; unit=µM

Recorded log10 of IC50, per entry:
# MOLECULE, log10 of IC50
data = [
    ("CC(=O)NC1CC(C)N(C(=O)c2ccccc2)c2ccccc21 (racemic)", 0.56),
    ("CC(=O)N(c1ccccc1)C1CC(C)N(C(=O)c2ccc(Oc3ccccc3)cc2)c2ccccc21 (racemic)", -1.89),
    ("CC(=O)N(c1ccccc1)C1CC(C)N(C(=O)/C=C/c2ccccc2)c2ccccc21 (racemic)", -0.68),
]

Dear colleague, could you send me log10 of IC50 for each of the items below? Thanks.
1. CCCCC(=O)N1c2ccccc2C(N(C(C)=O)c2ccccc2)CC1C (racemic)
2. CC(=O)N(c1ccccc1)[C@@H]1C[C@H](C)N(C(=O)c2ccccc2)c2ccccc21 (racemic)

result:
[0.16, -1.37]

---

Target: Prostaglandin D2 receptor 2 (Homo sapiens, UniProt Q9Y5Y4)
Experiment: Displacement of [3H]PGD2 from human CRTH2 receptor expressed in 293 cells by scintillation counting in presence of 50% human plasma
Format: cell-based, HEK293
Please go through the items and note down their IC50.
Give bare numbers, in µM.

# COMPOUND, ENDPOINT VALUE
data = [
    ("COc1ccc(C(=O)N2c3ccccc3C(N(C(C)=O)c3ccccc3)CC2C)cc1 (racemic)", 0.13),
]

Dear colleague, could you send me IC50 for each of the items below? Thanks.
1. CC(=O)N(c1ccccc1)[C@@H]1C[C@H](C)N(C(=O)c2ccccc2)c2ccccc21 (racemic)
2. C[C@H]1C[C@@H](N(C(=O)CCC(=O)O)c2ccccc2)c2ccccc2N1C(=O)c1ccccc1

result:
1: 1.05; 2: 0.009

---

Target: Prostaglandin D2 receptor 2 (Homo sapiens, UniProt Q9Y5Y4)
Test: Displacement of [3H]PGD2 from human CRTH2 receptor expressed in 293 cells by scintillation counting in presence of 0.5% BSA
Assay type: cell-based, HEK293
Threshold 400 nM: IC50 strictly smaller gives satisfied, otherwise not satisfied.

# COMPOUND, GROUP
rows = [
    ("CC1CC(N(C(=O)c2ccccc2)c2ccccc2)c2ccccc2N1C(=O)c1ccccc1 (racemic)", "satisfied"),
    ("CCCCC(=O)N(c1ccccc1)C1CC(C)N(C(=O)c2ccccc2)c2ccccc21 (racemic)", "satisfied"),
    ("CC(=O)N(c1ccccc1)C1CC(C)N(S(=O)(=O)c2ccccc2)c2ccccc21 (racemic)", "not satisfied"),
]

query: Quick check: IC50 of CC(=O)N(Cc1ccccc1)C1CC(C)N(C(=O)c2ccccc2)c2ccccc21 (racemic) under 400 nM?
result: not satisfied

query: Quick check: IC50 of CCN(c1ccccc1)C1CC(C)N(C(=O)c2ccccc2)c2ccccc21 (racemic) under 400 nM?
result: not satisfied

---

Please go through the items and note down their pIC50.
Molecular target: Prostaglandin D2 receptor 2 (Homo sapiens)
Experiment: Displacement of [3H]PGD2 from human CRTH2 receptor expressed in 293 cells by scintillation counting in presence of 0.5% BSA
Assay type: cell-based, HEK293
One number for each entry, as −log10 of the molar value.

Recorded pIC50, per entry:
# MOLECULE, VALUE KIND, ENDPOINT VALUE
data = [
    ("C[C@@H]1C[C@H](N(C(=O)CCC(=O)O)c2ccccc2)c2ccccc2N1C(=O)c1ccccc1", "pIC50", 6.40),
    ("CC(=O)N(c1ccccc1)C1CC(C)N(C(=O)c2cccc(C)c2)c2ccccc21 (racemic)", "pIC50", 7.13),
    ("CC(=O)N(c1ccccc1)C1CC(C)N(C(=O)c2ccc(C)cc2)c2ccccc21 (racemic)", "pIC50", 7.39),
]

# next molecule below
query: Sample C[C@H]1C[C@@H](N(C(=O)CCC(=O)O)c2ccccc2)c2ccccc2N1C(=O)c1ccccc1 — what was its pIC50?
result: 8.52
